Every entry's value here was drawn from patent US20210238260.

target: plasma purified human antithrombin III (AT-III), as complex with unfractionated heparin; experiment: ratio of K0.5 to Catalyst Biosciences WT FIXa, AT-III/UFH inhibition
property_label: K0.5-mut/K0.5-wt
Returns: the value as a bare number; no unit string appended.

// query Need K0.5-mut/K0.5-wt of FIXa-R318Y/R338E/T412A (protein) chain 1: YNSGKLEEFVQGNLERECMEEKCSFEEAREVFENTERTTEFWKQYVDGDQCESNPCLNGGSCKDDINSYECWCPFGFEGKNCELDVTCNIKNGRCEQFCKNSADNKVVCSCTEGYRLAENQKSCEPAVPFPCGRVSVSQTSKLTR chain 2: VVGGEDAKPGQFPWQVVLNGKVDAFCGGSIVNEKWIVTAAHCVETGVKITVVAGEHNIEETEHTEQKRNVIRIIPHHNYNAAINKYNHDIALLELDEPLVLNSYVTPICIADKEYTNIFLKFGSGYVSGWGRVFHKGYSALVLQYLRVPLVDRATCLESTKFTIYNNMFCAGFHEGGRDSCQGDSGGPHVTEVEGTSFLTGIISWGEECAMKGKYGIYTKVSRYVNWIKEKAKLT , thanks.
// result 396

// query Give the measured K0.5-mut/K0.5-wt of FIXa-K247N/N249S/R318Y/R338E/R403E/E410N (protein) chain 1: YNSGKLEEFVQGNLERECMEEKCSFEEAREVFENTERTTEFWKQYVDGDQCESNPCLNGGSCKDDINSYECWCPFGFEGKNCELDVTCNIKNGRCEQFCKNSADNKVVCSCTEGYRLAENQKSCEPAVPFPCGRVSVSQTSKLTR chain 2: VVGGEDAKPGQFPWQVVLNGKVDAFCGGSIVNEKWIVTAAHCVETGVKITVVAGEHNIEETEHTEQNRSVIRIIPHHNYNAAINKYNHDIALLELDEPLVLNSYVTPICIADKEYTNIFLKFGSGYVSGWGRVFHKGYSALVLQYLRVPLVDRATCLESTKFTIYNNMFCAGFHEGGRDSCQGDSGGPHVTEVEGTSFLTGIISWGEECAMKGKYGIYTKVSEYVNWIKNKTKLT .
// result 418
